Quick record: IC50, mRNA cap guanine-N(7) methyltransferase (Homo sapiens).
Numbers only, in µM.

[Q] What measured IC50 goes with COc1ccc(S(=O)(=O)N(C)C[C@H]2O[C@@H](n3cc(C#Cc4cnc5ccccc5c4)c4c(N)ncnc43)[C@H](O)[C@@H]2O)cc1C#N ?
[A] 165

[Q] What measured IC50 goes with COc1ccc(S(=O)(=O)N(C)C[C@H]2O[C@@H](n3cc(C#Cc4ccccc4)c4c(N)ncnc43)[C@H](O)[C@@H]2O)cc1C#N ?
[A] 56.5

[Q] What measured IC50 goes with CCN(C[C@H]1O[C@@H](n2cnc3c(NC)ncnc32)[C@H](O)[C@@H]1O)S(=O)(=O)c1ccc(OC)c(C#N)c1 ?
[A] 16.1

Continuing:
[Q] What measured IC50 goes with CNc1ncnc2c1ncn2[C@@H]1O[C@H](CNS(=O)(=O)c2ccc(OC)c(C#N)c2)[C@@H](O)[C@H]1O ?
[A] 56.2

###

Molecular target: Nonstructural protein 5 (Dengue virus) (UniProt V5TFZ2)
Sequence (V5TFZ2 as listed by the source): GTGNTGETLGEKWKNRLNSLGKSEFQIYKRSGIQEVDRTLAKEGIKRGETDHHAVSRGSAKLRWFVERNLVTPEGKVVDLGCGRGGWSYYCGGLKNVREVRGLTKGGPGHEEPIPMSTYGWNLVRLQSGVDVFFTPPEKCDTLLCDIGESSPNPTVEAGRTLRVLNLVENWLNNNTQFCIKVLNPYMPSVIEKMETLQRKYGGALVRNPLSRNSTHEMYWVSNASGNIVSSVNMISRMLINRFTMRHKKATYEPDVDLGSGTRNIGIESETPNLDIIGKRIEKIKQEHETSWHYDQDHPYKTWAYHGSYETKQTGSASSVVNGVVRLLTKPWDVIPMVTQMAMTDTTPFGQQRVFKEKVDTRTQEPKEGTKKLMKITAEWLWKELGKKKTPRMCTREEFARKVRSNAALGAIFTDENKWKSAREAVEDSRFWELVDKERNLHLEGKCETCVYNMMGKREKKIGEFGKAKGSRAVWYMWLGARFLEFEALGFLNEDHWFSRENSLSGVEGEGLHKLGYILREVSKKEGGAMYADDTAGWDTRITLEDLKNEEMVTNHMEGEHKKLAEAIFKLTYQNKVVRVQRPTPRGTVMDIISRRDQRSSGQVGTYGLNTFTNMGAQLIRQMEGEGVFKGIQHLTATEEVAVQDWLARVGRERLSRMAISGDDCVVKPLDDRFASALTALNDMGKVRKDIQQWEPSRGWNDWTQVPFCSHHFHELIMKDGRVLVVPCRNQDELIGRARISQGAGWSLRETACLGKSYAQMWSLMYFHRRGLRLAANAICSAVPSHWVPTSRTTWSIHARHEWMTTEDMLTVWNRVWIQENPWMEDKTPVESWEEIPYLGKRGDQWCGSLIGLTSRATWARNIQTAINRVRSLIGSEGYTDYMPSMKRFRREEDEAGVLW
Conditions: dengue virus type 3; dose 5.0 µM, time 30.0 min
Activity calls are given as the source filed them. No cut-off for these calls is given here.
MEASURED QUANTITY: inhibition

[Q] What measured inhibition goes with CNc1ncnc2c1ncn2[C@@H]1O[C@H](CNS(=O)(=O)c2ccc(Br)c([N+](=O)[O-])c2)[C@@H](O)[C@H]1O ?
[A] 78.1%

[Q] What measured inhibition goes with CCN(C[C@H]1O[C@@H](n2cnc3c(NC)ncnc32)[C@H](O)[C@@H]1O)S(=O)(=O)c1ccc(OC)c([N+](=O)[O-])c1 ?
[A] 90%

[Q] What measured inhibition goes with CNc1ncnc2c1ncn2[C@@H]1O[C@H](CNS(=O)(=O)c2ccc(C)c(Cl)c2)[C@@H](O)[C@H]1O ?
[A] inactive

[Q] What measured inhibition goes with Cc1ccc(S(=O)(=O)N(C)C[C@H]2O[C@@H](n3cc(C#Cc4cnc5ccccc5c4)c4c(N)ncnc43)[C@H](O)[C@@H]2O)cc1Cl ?
[A] 97.7%

[Q] What measured inhibition goes with COc1ccc(S(=O)(=O)N(C)C[C@H]2O[C@@H](n3cc(C#Cc4cnc5ccccc5c4)c4c(N)ncnc43)[C@H](O)[C@@H]2O)cc1[N+](=O)[O-] ?
[A] inactive

Then there is this molecule:
[Q] What measured inhibition goes with CCN(C[C@H]1O[C@@H](n2cnc3c(NC)ncnc32)[C@H](O)[C@@H]1O)S(=O)(=O)c1ccc(Br)c([N+](=O)[O-])c1 ?
[A] 98%

###

Molecular target: Replicase polyprotein 1ab (Severe acute respiratory syndrome-related coronavirus) (UniProt P0C6X7)
Settings: dose 5.0 µM, time 30.0 min
MEASURED QUANTITY: inhibition
# answer = value followed by unit

[Q] What measured inhibition goes with Cc1ccc(S(=O)(=O)N(C)C[C@H]2O[C@@H](n3cc(C#Cc4cnc5ccccc5c4)c4c(N)ncnc43)[C@H](O)[C@@H]2O)cc1[N+](=O)[O-] ?
[A] 1.9%

[Q] What measured inhibition goes with CCN(C[C@H]1O[C@@H](n2cnc3c(NC)ncnc32)[C@H](O)[C@@H]1O)S(=O)(=O)c1ccc(C)c([N+](=O)[O-])c1 ?
[A] 20.1%

[Q] What measured inhibition goes with CCN(C[C@H]1O[C@@H](n2cnc3c(NC)ncnc32)[C@H](O)[C@@H]1O)S(=O)(=O)c1ccc(OC)c(C#N)c1 ?
[A] 4.3%

[Q] What measured inhibition goes with COc1ccc(S(=O)(=O)N(C)C[C@H]2O[C@@H](n3cc(C#Cc4cnc5ccccc5c4)c4c(N)ncnc43)[C@H](O)[C@@H]2O)cc1C#N ?
[A] 1.4%

[Q] What measured inhibition goes with CCN(C[C@H]1O[C@@H](n2cnc3c(N)ncnc32)[C@H](O)[C@@H]1O)S(=O)(=O)c1ccc(OC)c(C#N)c1 ?
[A] 4.2%

[Q] What measured inhibition goes with Cc1ccc(S(=O)(=O)N(C)C[C@H]2O[C@@H](n3cc(C#Cc4cnc5ccccc5c4)c4c(N)ncnc43)[C@H](O)[C@@H]2O)cc1Cl ?
[A] 1.5%

[Q] What measured inhibition goes with COc1ccc(S(=O)(=O)N(C)C[C@H]2O[C@@H](n3cc(C#Cc4cnc5ccccc5c4)c4c(N)ncnc43)[C@H](O)[C@@H]2O)cc1[N+](=O)[O-] ?
[A] 0.8%

[Q] What measured inhibition goes with Cc1ccc(S(=O)(=O)N(C)C[C@H]2O[C@@H](n3cc(C#Cc4ccccc4)c4c(N)ncnc43)[C@H](O)[C@@H]2O)cc1[N+](=O)[O-] ?
[A] 1%

[Q] What measured inhibition goes with CN(C[C@H]1O[C@@H](n2cc(C#Cc3ccccc3)c3c(N)ncnc32)[C@H](O)[C@@H]1O)S(=O)(=O)c1ccc(Br)c([N+](=O)[O-])c1 ?
[A] 3.3%

[Q] What measured inhibition goes with Cc1ccc(S(=O)(=O)N(C)C[C@H]2O[C@@H](n3cc(C#Cc4ccccc4)c4c(N)ncnc43)[C@H](O)[C@@H]2O)cc1Cl ?
[A] 2.4%

Go through the list and state inhibition for each entry.
1. CCN(C[C@H]1O[C@@H](n2cnc3c(=O)[nH]cnc32)[C@H](O)[C@@H]1O)S(=O)(=O)c1ccc(OC)c(C#N)c1
2. CCN(C[C@H]1O[C@@H](n2cnc3c(NC)ncnc32)[C@H](O)[C@@H]1O)S(=O)(=O)c1ccc(OC)c([N+](=O)[O-])c1
3. CCN(C[C@H]1O[C@@H](n2cnc3c(=O)[nH]cnc32)[C@H](O)[C@@H]1O)S(=O)(=O)c1ccc(OC)c([N+](=O)[O-])c1
4. CCN(C[C@H]1O[C@@H](n2cnc3c(NC)ncnc32)[C@H](O)[C@@H]1O)S(=O)(=O)c1ccc(Br)c([N+](=O)[O-])c1

[A]
1. 48.1%
2. 16.4%
3. 69.8%
4. 29.5%

// provenance: ChEMBL document CHEMBL5370550
